target: 5-LO (Homo sapiens)
Construct: incubating a test compound with heparinised human blood, prior to challenge with the calcium ionophore A23187; endogenous in cells
Sequence (P09917 whole entry): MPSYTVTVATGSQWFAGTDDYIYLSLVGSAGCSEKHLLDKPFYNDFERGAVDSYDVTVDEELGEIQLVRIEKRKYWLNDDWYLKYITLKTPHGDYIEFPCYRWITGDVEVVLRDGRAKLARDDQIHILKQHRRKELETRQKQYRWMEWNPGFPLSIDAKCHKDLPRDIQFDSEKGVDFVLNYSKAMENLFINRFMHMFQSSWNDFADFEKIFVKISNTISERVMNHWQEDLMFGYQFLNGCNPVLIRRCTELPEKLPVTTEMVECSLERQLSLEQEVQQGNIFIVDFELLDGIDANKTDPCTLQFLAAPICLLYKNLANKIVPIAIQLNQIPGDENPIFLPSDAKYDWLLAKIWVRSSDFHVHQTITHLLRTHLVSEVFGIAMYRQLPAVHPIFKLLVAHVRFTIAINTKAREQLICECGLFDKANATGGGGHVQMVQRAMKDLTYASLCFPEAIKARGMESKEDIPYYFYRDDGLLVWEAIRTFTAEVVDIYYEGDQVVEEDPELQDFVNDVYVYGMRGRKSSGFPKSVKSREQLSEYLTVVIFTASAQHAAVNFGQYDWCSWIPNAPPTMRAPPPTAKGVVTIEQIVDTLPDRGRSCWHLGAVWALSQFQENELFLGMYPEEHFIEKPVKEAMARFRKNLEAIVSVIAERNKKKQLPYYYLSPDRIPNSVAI
experimentSummary: Test a): in vitro heparinised human blood challenged with calcium ionophore A23187, radioimmunoassay of LTB₄
testParameters: heparinised human blood, A23187 challenge; read-out: IC₅₀ against LTB₄ in test a)
pIC50: −log10 of the molar value.
Quick reference: pIC50 of the listed items.
assayReadout: pIC50

COC1(c2cc(F)cc(Sc3ccc(C(C)ONC(C)=O)cc3)c2)CCOCC1 (stereo not drawn) = 6.72
CCN(CC)OC(C)c1ccc(Sc2cc(F)cc(C3(OC)CCOCC3)c2)cc1 (stereo not drawn) = 6.82
COC1(c2cc(F)cc(Sc3ccc(C(C)ONC(N)=O)cc3)c2)CCOCC1 (stereo not drawn) = 6.51
